Entries annotated with measured relative binding affinity (RBA)
Tgt: Progesterone receptor (Rattus norvegicus)
Sequence (whole entry): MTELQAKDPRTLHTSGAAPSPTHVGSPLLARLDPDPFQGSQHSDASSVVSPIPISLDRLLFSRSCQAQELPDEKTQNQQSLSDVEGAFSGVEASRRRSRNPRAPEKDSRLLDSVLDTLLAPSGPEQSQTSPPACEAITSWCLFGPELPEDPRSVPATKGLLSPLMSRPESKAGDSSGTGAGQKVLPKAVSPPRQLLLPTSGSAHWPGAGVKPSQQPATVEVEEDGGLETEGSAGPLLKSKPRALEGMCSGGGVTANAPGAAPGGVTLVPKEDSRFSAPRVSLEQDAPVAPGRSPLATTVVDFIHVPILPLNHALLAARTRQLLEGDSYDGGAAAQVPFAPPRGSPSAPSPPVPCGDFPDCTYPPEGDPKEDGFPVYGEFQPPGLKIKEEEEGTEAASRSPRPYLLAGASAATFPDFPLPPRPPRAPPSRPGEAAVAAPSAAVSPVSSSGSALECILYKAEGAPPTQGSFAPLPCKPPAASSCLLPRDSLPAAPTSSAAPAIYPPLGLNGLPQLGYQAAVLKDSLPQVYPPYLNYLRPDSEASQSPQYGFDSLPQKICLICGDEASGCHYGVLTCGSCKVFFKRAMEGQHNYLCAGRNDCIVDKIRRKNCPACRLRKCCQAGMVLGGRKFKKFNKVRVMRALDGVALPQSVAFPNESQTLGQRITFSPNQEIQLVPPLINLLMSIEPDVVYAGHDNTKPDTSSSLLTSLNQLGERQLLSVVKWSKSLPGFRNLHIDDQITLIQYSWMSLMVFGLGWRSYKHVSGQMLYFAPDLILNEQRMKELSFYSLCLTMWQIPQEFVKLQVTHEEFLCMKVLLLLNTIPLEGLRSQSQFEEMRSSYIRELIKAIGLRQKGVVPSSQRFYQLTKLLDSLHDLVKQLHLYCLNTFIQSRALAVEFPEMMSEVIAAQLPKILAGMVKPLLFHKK
Assay Comment: Displacement of [3H]R5020 from rat progesterone receptor(PgR)

Solved entries:
> print(dat)
                                   compound  test.result
1  C[C@@H]1CC2=CC(=O)CC[C@@H]2C2CC[C@@]3(C)C(C[C@@H](F)[C@]3(C)O)C21 (some centres undefined)         14.4
2  C[C@@H]1CC2=CC(=O)CC[C@@H]2C2CC[C@@]3(C)C(CC[C@@H]3O)C21 (some centres undefined)          3.7
3  C[C@@H]1CC2=CC(=O)CC[C@@H]2C2CC[C@@]3(C)C(C[C@H](F)[C@]3(C)O)C21 (some centres undefined)            3

Now, please, on to the next compound.
stdin: Would you kindly share the measured relative binding affinity (RBA) for C[C@]12C=CC3=C4CCC(=O)C=C4CCC3C1CC[C@@]2(O)CF (some centres undefined) ?
stdout: 10.5

meta.source: ChEMBL document CHEMBL1126069
